# Compound, melting point
measured = [
    ("COC(=O)c1c(C(F)F)nc(C(F)(F)F)c(C(=O)OC)c1OC(C)C", "41 to 42 °C"),
    ("Cc1cc(C)cc(P(c2ccccc2)c2ccccc2)c1", "67 to 69 °C"),
    ("O=S(=O)(CCO)Nc1cc(C(c2cc(F)ccc2F)S(=O)(=O)c2ccc(Cl)cc2)c(Cl)cn1 (stereo not given)", "155 to 158 °C"),
    ("CCOC(=O)C1(Cc2ccc(OC)c(OC)c2)C(=O)NCC1c1ccc2c(c1)OCO2 (stereo not given)", "167 to 168 °C"),
    ("O=C(O)C1CCCc2c1c1ccccc1n2Cc1ccccc1 (stereo not given)", "212 to 215 °C"),
]

====

The reader will find reported melting point values listed item by item below.

# Compound, melting point
measured = [
    ("CC12CCCc3cc(Nc4ccc(C(=O)O)cc4)cc(c31)CCC2", "232 to 234 °C"),
    ("O=C(c1ccc(F)cc1)C1(n2cncn2)CC1", "73 to 75 °C"),
    ("CC(=O)N(O)Cc1ccc2c(c1)Cc1ccccc1-2", "182 to 183 °C"),
    ("COCCOC(=O)C1=NNC(C)=C(C(=O)OC(C)C)C1c1cccc([N+](=O)[O-])c1 (stereo not given)", "165 °C"),
    ("CN1C(=O)CCC(C)(C)c2cc(Nc3ncc(Cl)c(Nc4ccccc4-n4cccn4)n3)ccc21", "136 to 138 °C"),
    ("CC(C)(C#N)c1cc(CO)cc(C(C)(C)C#N)c1", "151 to 153 °C"),
    ("CN(C)C(=O)c1ccc(N)cc1S(=O)(=O)NC(C)(C)C", "205 to 208 °C"),
    ("CN1c2ccccc2CN(C(=O)c2ccc(-c3ccccc3)cc2)c2ccccc21", "198 to 201 °C"),
    ("COC(=O)C=Cc1ccc(N2CCN(CCC3CCN(C(=O)OC(C)(C)C)CC3)C2=O)cc1", "148 to 149 °C"),
    ("c1ccc2nc(N3CCNCC3)ncc2c1", "64 to 66 °C"),
]

====

The reader will find reported melting point values listed item by item below.
Reported endpoint: melting point

# Given smiles, Observed value
rows = [
    ("COC(=O)c1cccc(S(=O)(=O)N(C)C)c1CS(N)(=O)=O", "133 to 142 °C"),
    ("FC(F)(F)c1cccc(CCc2nnc(-c3ccc4ncsc4c3)o2)c1", "126 to 127 °C"),
    ("C=C(F)C(=O)Oc1c(Cl)cc(C#N)cc1Cl", "95 to 99 °C"),
    ("O=C(Nc1ccc2c(c1)CCC2)C(=O)N1CCC(Cc2ccc(F)cc2)CC1", "150 to 152 °C"),
    ("CCOC(=O)/C=C(C)/C=C/C=C(\\C)C1=Cc2cc(C(C)(C)C)cc(C(C)(C)C)c2OC1", "130 to 131 °C"),
]

====

The reader will find reported melting point values listed item by item below.
Reported endpoint: melting point

# Compound, Observed value
measured = [
    ("O=C1C2CCCC2=Nc2ccc(F)cc2N1Cc1ccccc1 (stereo not given)", "158 to 159 °C"),
    ("CCC/C(=C\\C=O)c1ccc2c(c1)C(CC)(CC)OC(=O)N2", "173 to 179 °C"),
    ("CS(=O)(=O)c1ccc(C2=C(c3ccccc3)C(=O)OC23CCC3)cc1", "159 to 160 °C"),
    ("CC1(C)CC(=NO)c2cc(Br)ccc21", "115 to 117 °C"),
    ("COC(=O)c1ccc(/C=C/C(=O)O)s1", "180 °C"),
    ("CC(=O)NCCNC1=NS(=O)(=O)c2cc(Cl)ccc2N1", "295 to 297 °C"),
    ("CC(N)C(=O)Nc1cc(OCC(F)(F)F)ccc1-c1ccccn1 (stereo not given)", "85 to 86 °C"),
    ("CCOC(=O)c1cnc(Nc2ccc(-n3cnc(C)c3)c(OC)c2)nc1-c1ccc(Cl)cc1", "216 to 218 °C"),
    ("O=C(Nc1nccs1)c1cn(CC2CCCC2)c2cc(Cl)ccc12", "117 to 119 °C"),
    ("FC(F)(F)c1cccc(CSc2nnc(-c3ccc4ncccc4c3)o2)c1", "158 to 159 °C"),
    ("CC(=O)COc1ccc([N+](=O)[O-])cc1", "77 to 78 °C"),
    ("O=S(=O)(c1ncc(Cl)cn1)c1cccs1", "116 to 117 °C"),
    ("Cn1c(CO)nc2cccnc21", "229 to 231 °C"),
    ("COc1ccc(S(=O)(=O)Nc2cccnc2Nc2ccc(OS(=O)(=O)c3ccc(OC)cc3)cc2)cc1", "122 to 123 °C"),
    ("CS(=O)(=O)c1ncc(-c2ccccc2)c(C(F)(F)F)n1", "110 to 112 °C"),
    ("CC(C)(C)OC(=O)c1ccc(OCCNC(=O)C2Cc3ccccc3N2S(=O)(=O)c2ccc(-c3ccc(F)cc3OC(F)F)cc2)cc1 (stereo not given)", "60 to 70 °C"),
    ("Oc1cc2c3cc(O)c(O)cc3n(Cc3cccnc3)c2cc1O", "290 to 294 °C"),
    ("CNC(=O)c1ccccc1Nc1nc(Nc2ccc3c(c2)CN(CCOC)CCS3)ncc1Cl", "176 to 177 °C"),
    ("COC(=O)c1c(C(F)(F)F)noc1NS(=O)(=O)c1ccccc1", "100 to 101 °C"),
    ("O=C1C2CC=C(SC3=CCC4C(=O)N(c5ccccc5)C(=O)C4C3)CC2C(=O)N1c1ccccc1 (stereo not given)", "212 to 217 °C"),
]

Data credit: a melting point compilation (Tetko et al.; mined from patent text by program, amines drawn as free bases though some values may be those of a salt)
